Values were extracted from paper PMC4007584.

molecular target: catalytic domain of PDE10A2 (Homo sapiens)
Sequence (Q9Y233 715-1055 limits assumed): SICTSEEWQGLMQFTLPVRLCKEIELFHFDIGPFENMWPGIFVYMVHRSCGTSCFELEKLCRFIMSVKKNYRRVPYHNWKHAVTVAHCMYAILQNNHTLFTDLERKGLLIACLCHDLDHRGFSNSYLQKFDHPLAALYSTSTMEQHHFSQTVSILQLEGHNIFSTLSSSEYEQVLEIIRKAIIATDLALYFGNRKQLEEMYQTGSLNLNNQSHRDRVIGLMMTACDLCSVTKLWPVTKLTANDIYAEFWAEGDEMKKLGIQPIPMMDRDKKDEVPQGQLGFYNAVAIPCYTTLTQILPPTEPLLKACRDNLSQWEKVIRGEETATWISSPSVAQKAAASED
pKi: −log10 of the molar value.

SMI	pKi
CC(C)Cn1c(=O)n(C)c(=O)c2[nH]cnc21	4.77
CC(=O)CCCCn1c(=O)c2c(ncn2C)n(C)c1=O	3.70
